target desc: T1, full-length beta-Catenin (Uniprot ID P35222) (Homo sapiens (Human), UniProt P35222 1-781)
T1 construct: also called bCat; B-Catenin
T1 sequence: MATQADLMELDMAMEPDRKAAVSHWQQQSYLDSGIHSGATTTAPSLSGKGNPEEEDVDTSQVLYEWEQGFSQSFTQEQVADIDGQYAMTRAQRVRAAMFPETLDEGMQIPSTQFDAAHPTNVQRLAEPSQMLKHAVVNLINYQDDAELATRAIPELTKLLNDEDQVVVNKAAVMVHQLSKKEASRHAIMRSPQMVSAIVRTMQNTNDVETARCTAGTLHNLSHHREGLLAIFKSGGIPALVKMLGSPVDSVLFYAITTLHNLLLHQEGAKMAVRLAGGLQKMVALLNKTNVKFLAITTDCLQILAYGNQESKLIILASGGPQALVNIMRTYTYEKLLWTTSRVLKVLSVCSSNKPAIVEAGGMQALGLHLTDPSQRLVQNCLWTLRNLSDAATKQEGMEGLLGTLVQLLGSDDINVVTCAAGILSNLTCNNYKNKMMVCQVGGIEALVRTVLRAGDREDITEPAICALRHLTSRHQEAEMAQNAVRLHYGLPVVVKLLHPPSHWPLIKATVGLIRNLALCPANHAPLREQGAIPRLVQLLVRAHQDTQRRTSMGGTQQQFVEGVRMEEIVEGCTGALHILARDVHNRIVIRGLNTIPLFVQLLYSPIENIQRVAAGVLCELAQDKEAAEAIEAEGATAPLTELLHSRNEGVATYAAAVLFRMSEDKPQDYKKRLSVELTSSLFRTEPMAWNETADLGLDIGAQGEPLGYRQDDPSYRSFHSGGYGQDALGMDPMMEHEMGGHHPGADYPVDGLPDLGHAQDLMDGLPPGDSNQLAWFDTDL
assay info: fluorescence polarization competition; full-length beta-catenin with 5FAM-labeled TCF4 residues 10-53 probe as competitor
Protocol: The plate was incubated protected from light for 60 minutes at 20° C. prior to read. Reads were performed on a CLARIOstar plate reader (BMG Labtech) in duplicate, and data were fitted to a 1:1 binding model with hill slope using an in-house script. All provided concentrations are final concentrations.
pIC50: −log10 of the molar value. Starred links: 1 amine or outer side, 2 acyl side, 3 side chain; linkers in the order of their positions; H or OH if unused. Positions of bridges follow the written chain, without caps; N, C: chain ends. Non-standard residues stand in square brackets, D forms with d. Primed or numbered codes have the meaning given here. B5(21) = 2-amino-2-(pent-4-en-1-yl)hept-6-enoic acid, bis(4-pentenyl)glycine (stitching residue), C=CCCCC(CCCC=C)(N[*:1])C(=O)[*:2]; (NHCyBu)AsnR = N4-cyclobutyl-L-asparagine, O=C(C[C@H](N[*:1])C(=O)[*:2])NC1CCC1; (NHEt)AsnR = N4-ethyl-L-asparagine, CCNC(=O)C[C@H](N[*:1])C(=O)[*:2]; TOMe = O-methyl-L-threonine, CO[C@H](C)[C@H](N[*:1])C(=O)[*:2]; Bta = N[C@@H](Cc1csc2ccccc12)C(=O)O; αAllylPro = C=CC[C@@]1(C(=O)O)CCCN1; S8 = C=CCCCCCC[C@](C)(N)C(=O)O
Entries and their pIC50

binder	pIC50
XDIXDDAAFNXFXH (not fully specified; N-terminal Ac; PL3 at 1; B5 at 4; S8 at 11; 2OMeF at 12; BztA at 13; C-terminal NH2; staples PL3(1)-B5(4) and B5(4)-S8(11) by olefin metathesis) [I-554]	7.56
XDLXDDAAFQXFXQ (not fully specified; N-terminal Ac; PL3 at 1; B5 at 4; S8 at 11; BztA at 13; C-terminal NH2; staples PL3(1)-B5(4) and B5(4)-S8(11) by olefin metathesis) [I-558]	7.25
XDIXDDAAFNXFXH (not fully specified; N-terminal Ac; PL3 at 1; B5 at 4; S8 at 11; 2OMeF at 12; BztA at 13; C-terminal NH2; staples PL3(1)-B5(4) and B5(4)-S8(11) by olefin metathesis, It has the same description as I-554 and is the earlier eluting HPLC peak (staple isomer composition)) [I-553]	7.21
Ac-[αAllylPro]DA[B5(21)][(NHEt)AsnR]DAAFV[S8]F[Bta]Q-NH2 (staple 1-4, 4-11) [I-536]	5.35
Ac-[αAllylPro]D[TOMe][B5(21)]DEAAFQ[S8]F[Bta]Q-NH2 (staple 1-4, 4-11, It has the same description as I-542) [I-541]	6.74
Ac-[αAllylPro]DA[B5(21)][(NHCyBu)AsnR]DAAFV[S8]F[Bta]Q-NH2 (staple 1-4, 4-11) [I-539]	5.30
